Tested on: L1210 leukemia ip in BDF1 mice, survival T/C
assay-explanation: NCI In Vivo Anticancer Drug Screen. Data for tumor model L1210 Leukemia (intraperitoneal) in B6D2F1 (BDF1) mice
test-parameters: endpoint: mean survival time; dose: 400.0 mg/kg/injection; schedule: Q04DX003 (ip); vehicle: Klucel (hydroxypropylcellulose) (HPC); higher = longer survival
Toxic doses and inconclusive results are not listed.
readout-type: T/C

Worked cases, answers included:
COc1ccc(C2=CN(S(=O)(=O)c3ccc(C)cc3)CCc3ccccc32)cc1 ... 92 % of control
O=C1c2ccccc2C(=O)N1C1C=CC=CC=C1 ... 93 % of control
O=C(Nc1ccc(Nc2ccncc2)cc1)c1ccc([N+](=O)[O-])cc1 ... 95 % of control
O=C1C(I)=CC(=C(c2cc(I)c(O)c(I)c2)c2ccccc2C(=O)O)C=C1I ... 98 % of control
O=C(O)CC(SC(c1ccccc1)(c1ccccc1)c1ccccc1)C(=O)O (configuration not stated) ... 96 % of control

// field: T/C; key: CC1(C)CC(=O)CCS1 ; value = 100 % of control

// field: T/C; key: O=C(O)c1cccc([N+](=O)[O-])c1O ; value = 96 % of control

// field: T/C; key: CC(C)c1cccc(C(C)C)c1OC(=O)Nc1ccccc1Cl ; value = 103 % of control

// field: T/C; key: CC1(C)Cc2ccccc2C(c2nccc3ccccc23)=N1 ; value = 102 % of control

// field: T/C; key: c1ccc(CC2(Cc3ccccc3)SCCS2)cc1 ; value = 89 % of control
